Read-out: Paternally Expressed 10 (PEG10), PEG10 (gene 23089)
test method notes: LTEA_HepaRG_PEG10: Life Technologies and Expression Analysis (LTEA) Assay for Paternally Expressed 10 (PEG10) using HepaRG (AID 2283520);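 on AC50: differentiated HepaRG human liver cells in serum-free induction medium with 0.5% DMSO; PEG10 transcript by qRT-PCR normalised to ACTB GAPDH and POLR2A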
test parameters: mRNA level, 48 h; actives raise or lower the signal
Active and inactive are the calls of the source. How the source made its calls: active means hit-call score of the fitted dose curve at least 0.9, where 1 is the maximum; inactive means score below 0.9.
measurement kind: AC50

Reference set (8 entries):
- Clc1ccc(C(c2ccc(Cl)cc2)C(Cl)Cl)cc1: inactive
- OCCOCCO: inactive
- OCCCBr: inactive
- N#CC(Br)(Br)C(N)=O: inactive
- CC(C)N(Cc1ccccc1)C(=O)C(C)(C)C: 28.8 µM (active)
- O=C(O)C1C2CCC(O2)C1C(=O)O (stereo not given): 85.7 µM (active)
- Clc1ccccc1Cl: inactive
- c1ccc2c(c1)-c1cccc3cccc-2c13: 50 µM (active)

Please report AC50 for every entry that follows.
1. ClCCOCCCl
2. CCCCCCCCn1sccc1=O
3. O=C(N[C@H](c1ccccc1)[C@@H]1CN2CCC1CC2)c1c(Cl)ccc(C(F)(F)F)c1Cl

Response given:
1. inactive
2. 52 µM (active)
3. 26.8 µM (active)

Please report AC50 for every entry that follows.
1. Oc1ccc2ccc3cccc4ccc1c2c34
2. CN(C)C(=O)Nc1ccc(Cl)cc1

Response given:
["inactive", "inactive"]

Please report AC50 for every entry that follows.
1. Nc1ccc(Cl)cc1N
2. CC(C)(C)OOC(=O)c1ccccc1

Response given:
["14.2 µM (active)", "inactive"]

###

Read-out: CD38, CD38 (gene 952)
test method notes: BSK_SAg_CD38: BioMAP Diversity Plus: SAg Assay for CD38 Biomarker Activity (AID 2283087)
test parameters: primary human HUVEC with PBMC; actives raise or lower the signal
Calls of active or inactive are those of the source. How the source made its calls: active means hit-call score of the fitted dose curve at least 0.9, where 1 is the maximum; inactive means score below 0.9.
Assign a class; possible classes are true (1) (active), false (0) (inactive)

Answered cases to consult:
• CC(C)(OOC(C)(C)c1ccccc1)c1ccccc1 = true (1)
• CC(C)(C)C(O)(CCc1ccc(Cl)cc1)Cn1cncn1 (centres undefined) = false (0)
• COC(=O)c1ccccc1N = false (0)
• Brc1ccc(Oc2ccccc2)cc1 = false (0)
• O=C(N[C@H](c1ccccc1)[C@@H]1CN2CCC1CC2)c1c(Cl)ccc(C(F)(F)F)c1Cl = true (1)
• CCC12COCN1COC2 = false (0)
• Cc1ccc(N)cc1 = false (0)
• O=P(OCCCl)(OCCCl)OCCCl = false (0)

Challenge: How was "CCCCOC(=O)c1ccccc1C(=O)OCc1ccccc1" classified in this test?
Response given: false (0)

Challenge: Now give it for "C=CCc1ccc2c(c1)OCO2" too.
Response given: false (0)

Challenge: Now give it for "Nc1ccc(N=Nc2ccccc2)cc1" too.
Response given: false (0)

Challenge: Now give it for "[O-][Cl+]O" too.
Response given: false (0)

Challenge: Now give it for "c1ccc2c(c1)-c1cccc3cccc-2c13" too.
Response given: false (0)

Challenge: Now give it for "CCOC(=O)[C@]1(c2ccccc2)Oc2ccccc2[C@@H]1N" too.
Response given: true (1)

Challenge: Now give it for CC(O)CCO (centres undefined) too.
Response given: false (0)

###

test method notes: ATG_SREBP_CIS: Attagene CIS-FACTORIAL HepG2 Assay for human Sterol Regulatory Element Binding (SREBP) (AID 2282962)
test parameters: HepG2 Attagene cis-factorial SREBP reporter, mRNA; actives raise or lower the signal
Active and inactive are the calls of the source. How the source made its calls: active means hit-call score of the fitted dose curve at least 0.9, where 1 is the maximum; inactive means score below 0.9.
Assign a class; possible classes are active, inactive

Answered cases to consult:
• Nc1cc(Cl)cc(C(=O)O)c1Cl = inactive
• CCCCCCCCn1sccc1=O = active

Challenge: How was "C1=Cc2cccc3cccc1c23" classified in this test?
Response given: inactive

Challenge: Now give it for "CC(C)N(Cc1ccccc1)C(=O)C(C)(C)C" too.
Response given: inactive

Challenge: Now give it for "Brc1ccc(Oc2ccccc2)cc1" too.
Response given: active

Challenge: Now give it for "Nc1ccc(Cc2ccc(N)cc2)cc1" too.
Response given: inactive

Challenge: Now give it for "Cc1cccc(N)c1N" too.
Response given: inactive

Challenge: Now give it for CCOc1cccc(C2(N3CCN(c4ccccc4)CC3)CCC(C)CC2)c1 (centres undefined) too.
Response given: inactive

Challenge: Now give it for "c1ccc(NNc2ccccc2)cc1" too.
Response given: inactive

Challenge: Now give it for CCCCCCCCCCCCCN1CC(C)OC(C)C1 (centres undefined) too.
Response given: inactive
